Molecular target: recombinant eIF4E (Homo sapiens (Human), UniProt P06730)
Sequence (P06730 whole entry): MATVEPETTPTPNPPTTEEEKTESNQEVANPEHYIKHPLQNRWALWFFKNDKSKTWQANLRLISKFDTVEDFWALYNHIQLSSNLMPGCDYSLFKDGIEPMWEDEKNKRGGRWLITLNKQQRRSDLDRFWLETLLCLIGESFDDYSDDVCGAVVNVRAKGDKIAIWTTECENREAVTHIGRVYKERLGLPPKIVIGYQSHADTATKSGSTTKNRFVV
Assay: Fluorescence polarization competition assay for eIF4E binding potency
Details: inhibition of eIF4E/EDA-m7GDP-ATTO-550 binding; calculated IC50 values, Table 4B; read-out: IC50
Give measured IC50 for each item. Keep answers brief.
Report only the number, with the unit nM understood.

Request: For the molecule shown here, Cc1nc2cnc(N3CCC(O)C3)c(C#N)c2c(=O)n1CCOc1ccc(Cl)cc1-c1ccnc2ccsc12 (stereo not drawn) [compound 1258] , give the reported IC50.
Result: 61.5

Request: For the molecule shown here, Cc1cc(-c2cc(Cl)ccc2OCCn2c(C)nc3cc(C(F)(F)F)c(N4CCN(C)CC4)c(C#N)c3c2=O)c2sc(C)c(C(=O)O)c2n1 [compound 1416] , give the reported IC50.
Result: 12.7

Request: For the molecule shown here, COC1CCN(c2ncc3nc(C)n(CCOc4ccc(Cl)cc4-c4cc(C)nc5c(C(=O)O)csc45)c(=O)c3c2C#N)C1 (stereo not drawn) [compound 1234] , give the reported IC50.
Result: 30.2

Request: For the molecule shown here, N#Cc1cc(F)cc2nc(C(F)F)n(CCOc3ccc(Cl)cc3-c3ccnc4c(C(=O)O)csc34)c(=O)c12 [compound 1938] , give the reported IC50.
Result: 46.3

Request: For the molecule shown here, CCc1cc(-c2cc(Cl)ccc2OCCn2c(C)nc3cnc(N4CCN(C)C5CC54)c(C#N)c3c2=O)c2scc(C(=O)O)c2n1 (stereo not drawn) [compound 1219] , give the reported IC50.
Result: 3.99

Request: For the molecule shown here, Cc1nc2cnc(N3CCN(C(C)(C)C(F)F)CC3)c(C#N)c2c(=O)n1CCOc1ccc(Cl)cc1-c1ccnc2c(C(=O)O)csc12 [compound 1309] , give the reported IC50.
Result: 37.2

Request: For the molecule shown here, Cc1nc2cc(C(F)(F)F)c(N3CC4(C3)CN(C3CC3)C4)c(C#N)c2c(=O)n1CCOc1ccc(Cl)cc1-c1ccnc2ccsc12 [compound 2015] , give the reported IC50.
Result: 51.1

Request: For the molecule shown here, Cc1nc2cnc(N(C)C3CCN(CC(F)(F)C(F)F)CC3)c(C#N)c2c(=O)n1CC#Cc1ccc(Cl)cc1-c1ccnc2c(C(=O)NS(=O)(=O)c3cccnc3)csc12 [compound 1707] , give the reported IC50.
Result: 15.7

Request: For the molecule shown here, Cc1nc2cnc(N(C)C3C[C@H]4C[C@@H]3CN4CC(C)(F)F)c(C#N)c2c(=O)n1CCOc1ccc(Cl)cc1-c1ccnc2c(C(=O)O)csc12 (stereo partly drawn) [compound 1688] , give the reported IC50.
Result: 12.7

Request: For the molecule shown here, CCN(c1ncc2nc(C)n(CC#Cc3ccc(Cl)cc3-c3ccnc4c(C(=O)NS(=O)(=O)CC(F)F)csc34)c(=O)c2c1C#N)C1CCN(C2COC2)CC1 [compound 1745] , give the reported IC50.
Result: 11

Request: For the molecule shown here, Cc1nc2cnc(N3CCN(C4(COC(F)F)CC4)CC3)c(C#N)c2c(=O)n1CC#Cc1ccc(Cl)cc1-c1ccnc2c(C(=O)O)csc12 [compound 1510] , give the reported IC50.
Result: 20.1

Request: For the molecule shown here, Cc1nc2cc(C(F)(F)F)c(CCN3CC(F)(F)C3)c(C#N)c2c(=O)n1CCOc1ccc(Cl)cc1-c1ccnc2c(C(=O)O)csc12 [compound 1287] , give the reported IC50.
Result: 42.4

----------
Biological target: recombinant eIF4E (Homo sapiens (Human))
Assay: Fluorescence polarization competition assay for eIF4E binding potency
Details: inhibition of eIF4E/EDA-m7GDP-ATTO-550 binding; calculated IC50 values, Table 4B; read-out: IC50
PROPERTY MEASURED: IC50

Request: For the molecule shown here, CCc1cc(-c2cc(Cl)ccc2OCCn2c(C)nc3cnc([C@@H]4[C@@H]5CN(C)C[C@@H]54)c(C#N)c3c2=O)c2scc(C(=O)O)c2n1 , give the reported IC50.
Result: 10.3 nM

Request: For the molecule shown here, Cc1nc2cnc(N3CCN(CC(F)(F)F)CC3)c(C#N)c2c(=O)n1CC#Cc1ccc(Cl)cc1-c1ccnc2c(C(=O)NS(C)(=O)=O)csc12 , give the reported IC50.
Result: 14.1 nM

Request: For the molecule shown here, Cc1ccc(-c2cc(Cl)ccc2OCCn2c(C)nc3cc(C(F)(F)F)c(N4CCN(C)CC4)c(C#N)c3c2=O)c2scc(C(=O)O)c12 , give the reported IC50.
Result: 13.1 nM

Request: For the molecule shown here, Cc1ccc(-c2c(C(F)(F)F)cc3nc(C)n(CCOc4ccc(Cl)cc4-c4cc(C)nc5c(C(=O)O)csc45)c(=O)c3c2C#N)cn1 , give the reported IC50.
Result: 47.4 nM

Request: For the molecule shown here, Cc1nc2cnc(N3CCN(C4CC4(C)C)CC3)c(C#N)c2c(=O)n1CCOc1ccc(Cl)cc1-c1ccnc2c(C(=O)O)csc12 (stereo not drawn) , give the reported IC50.
Result: 38.8 nM

Request: For the molecule shown here, Cc1nc2cnc(C#CCN(C)CC(F)(F)F)c(C#N)c2c(=O)n1CC#Cc1ccc(Cl)cc1-c1ccnc2c(C(=O)O)csc12 , give the reported IC50.
Result: 35 nM

Request: For the molecule shown here, Cc1nc2cnc(SC3CCN(CC(F)(F)F)CC3)c(C#N)c2c(=O)n1CCOc1ccc(Cl)cc1-c1ccnc2c(C(=O)O)csc12 , give the reported IC50.
Result: 36.5 nM

Request: For the molecule shown here, Cc1nc2cnc(C#N)cc2c(=O)n1CCOc1ccc(Cl)cc1-c1cccc(C(=O)O)c1 , give the reported IC50.
Result: 59.3 nM

Request: For the molecule shown here, Cc1nc2cc(C(F)(F)F)c(CN3CCN(C)CC3)c(C#N)c2c(=O)n1CCOc1ccc(Cl)cc1-c1ccnc2ccsc12 , give the reported IC50.
Result: 24.7 nM

Request: For the molecule shown here, CCC(F)(CC)CN1CCN(c2ncc3nc(C)n(CCOc4ccc(Cl)cc4-c4ccnc5c(C(=O)O)csc45)c(=O)c3c2C#N)CC1 , give the reported IC50.
Result: 23 nM

Request: For the molecule shown here, Cc1nc2cnc(N(C)C3CCN([C@H]4C[C@@H](OC(F)(F)F)C4)CC3)c(C#N)c2c(=O)n1CC#Cc1ccc(Cl)cc1-c1ccnc2c(C(=O)NS(=O)(=O)C3COC3)csc12 , give the reported IC50.
Result: 6.02 nM

Request: For the molecule shown here, Cc1nc2cnc(N(C)C3CCN(C4(CF)CC4)CC3)c(C#N)c2c(=O)n1CCOc1ccc(Cl)cc1-c1ccnc2c(C(=O)O)csc12 , give the reported IC50.
Result: 12.2 nM

----------
Molecular target: recombinant eIF4E (Homo sapiens (Human), UniProt P06730)
Experiment: Fluorescence polarization competition assay for eIF4E binding potency
Conditions: fluorescence polarization competition, 75 nM recombinant eIF4E, 20 nM EDA-m7GDP-ATTO-550; IC50 class; read-out: elF4E FP
PROPERTY MEASURED: IC50

Request: For the compound shown here, Cn1cc2c(C(=O)O)cc(-c3cc(Cl)ccc3OCCn3cnc4cnc(C#N)cc4c3=O)cc2n1 , give the reported IC50.
Result: > 1 µM

Request: For the compound shown here, Cc1nc2cnc(N3CCN(CC(F)(F)F)CC3)c(C#N)c2c(=O)n1CC#Cc1ccc(Cl)cc1-c1ccnc2c(C(=O)O)csc12 , give the reported IC50.
Result: < 0.05 µM

Request: For the compound shown here, Cc1nc2cc(C(F)(F)F)cc(C#N)c2c(=O)n1CC#Cc1ccc(Cl)cc1-c1ccnc2c(C(=O)O)csc12 , give the reported IC50.
Result: < 0.05 µM

Request: For the compound shown here, Cc1nc2cc(OC(F)F)c(OC(F)F)c(C#N)c2c(=O)n1CCOc1ccc(Cl)cc1-c1ccnc2c(C(=O)O)csc12 , give the reported IC50.
Result: < 0.05 µM

Request: For the compound shown here, Cc1cc(-c2cc(Cl)ccc2OCCn2c(C)nc3cc(Cl)c(NC4CC4)c(C#N)c3c2=O)c2scc(C(=O)O)c2n1 , give the reported IC50.
Result: < 0.05 µM

Request: For the compound shown here, Cc1nc2cc(C(F)(F)F)c(N3CCN(C)CC3)c(C#N)c2c(=O)n1CC#Cc1ccc(Cl)cc1-c1ccnc2c(C(=O)O)csc12 , give the reported IC50.
Result: < 0.05 µM

Request: For the compound shown here, Cc1nc2cc(C(F)(F)F)cc(C#N)c2c(=O)n1CCOc1ccc(Cl)cc1C1CCNC(C(=O)O)C1 (stereo not shown) , give the reported IC50.
Result: 0.05 to 1 µM

----------
Molecular target: recombinant eIF4E (Homo sapiens (Human))
Experiment: Fluorescence polarization competition assay for eIF4E binding potency
Conditions: inhibition of eIF4E/EDA-m7GDP-ATTO-550 binding; calculated IC50 values, Table 4B; read-out: IC50
Rule: IC50 below 20 nM gives label 1. Equal to or above 20 nM gives label 0.

Request: Given the entry Cc1nc2cc3c(c(C#N)c2c(=O)n1CCOc1ccc(Cl)cc1-c1ccnc2c(C(=O)O)csc12)S(=O)(=O)N(C)CC3 , would its reported IC50 be below 20 nM?
Result: label 1

Request: Given the entry Cc1nc2cnc(N(C)C3CCN([C@H]4C[C@@H](OC(F)(F)F)C4)CC3)c(C#N)c2c(=O)n1CC#Cc1ccc(Cl)cc1-c1ccnc2c(C(=O)NS(C)(=O)=O)csc12 , would its reported IC50 be below 20 nM?
Result: label 1

Request: Given the entry CCN(c1ncc2nc(C)n(CC#Cc3ccc(Cl)cc3-c3ccnc4c(C(=O)O)csc34)c(=O)c2c1C#N)C1CCN(CC(F)F)CC1 , would its reported IC50 be below 20 nM?
Result: label 1

Request: Given the entry Cc1nc2cnc(N(C)C3CCN(CC(F)(F)Cl)CC3)c(C#N)c2c(=O)n1CC#Cc1ccc(Cl)cc1-c1ccnc2c(C(=O)O)csc12 , would its reported IC50 be below 20 nM?
Result: label 1

Request: Given the entry CCN(c1ncc2nc(C)n(CC#Cc3ccc(Cl)cc3-c3ccnc4c(C(=O)NS(=O)(=O)C5COC5)csc34)c(=O)c2c1C#N)C1CCN([C@H]2C[C@H](OC(F)F)C2)CC1 , would its reported IC50 be below 20 nM?
Result: label 0

Request: Given the entry Cc1cc(-c2cc(Cl)ccc2OCCn2c(C)nc3cc(C(F)(F)F)c(OCC(F)F)c(C#N)c3c2=O)c2scc(C(=O)O)c2n1 , would its reported IC50 be below 20 nM?
Result: label 1

Request: Given the entry Cc1nc2cnc(N3CCN(C4CC4)C(C(F)(F)F)C3)c(C#N)c2c(=O)n1CCOc1ccc(Cl)cc1-c1ccnc2c(C(=O)O)csc12 (stereo not drawn) , would its reported IC50 be below 20 nM?
Result: label 0

Request: Given the entry Cc1nc2cnc(N(C)C3CCN([C@H]4C[C@@H](OC(F)(F)F)C4)CC3)c(C#N)c2c(=O)n1CC#Cc1ccc(Cl)cc1-c1ccnc2c(C(=O)NS(=O)(=O)c3cccnc3)csc12 , would its reported IC50 be below 20 nM?
Result: label 0

Request: Given the entry Cc1nc2cnc(N(C)C3CCN(CCF)CC3)c(C#N)c2c(=O)n1CC#Cc1ccc(Cl)cc1-c1ccnc2c(C(=O)O)csc12 , would its reported IC50 be below 20 nM?
Result: label 0

Request: Given the entry Cc1nc2cnc(N(C)C3CCN([C@H]4C[C@H](F)C4)CC3)c(C#N)c2c(=O)n1CC#Cc1ccc(Cl)cc1-c1ccnc2c(C(=O)NS(=O)(=O)c3ccncc3)csc12 , would its reported IC50 be below 20 nM?
Result: label 1

Request: Given the entry Cc1nc2cnc(N3CCN(C)C(COC(F)(F)F)C3)c(C#N)c2c(=O)n1CC#Cc1ccc(Cl)cc1-c1ccnc2c(C(=O)O)csc12 (stereo not drawn) , would its reported IC50 be below 20 nM?
Result: label 1

The origin of these recorded values is patent US11286268B1.
